- methodSummary: MRC5 TOX 7 d
- Assay type: cell-based
- setupConditions: human

structureString: CNC(=O)N(C)c1ccc2c(c1)CN(c1ncc(Cc3ccc(-n4cccn4)cc3)s1)CC2
CC50 at 7 d: > 13.6 µM
--
structureString: NC(=O)Nc1ccc2c(c1)CN(c1ncc(Cc3ccc(-n4cccn4)cc3)s1)CC2
CC50 at 7 d: > 6.77 µM
--
structureString: CNC(=O)Nc1ccc2c(c1)CN(c1ncc(Cc3ccc(-n4cccn4)cc3)s1)CC2
CC50 at 7 d: > 2.89 µM
--
structureString: NC(=O)Nc1ccc2c(c1)CN(c1ncc(Cc3ccc(N4CCOC4=O)cc3)s1)CC2
CC50 at 7 d: > 6.77 µM
--
structureString: CCOc1ccc(Cc2cnc(N3CCc4ncc(NC(N)=O)cc4C3)s2)cc1
CC50 at 7 d: 47.3 µM
--
structureString: CN(C(N)=O)c1ccc2c(c1)CN(c1ncc(Cc3ccc(-c4ncccn4)cc3)s1)CC2
CC50 at 7 d: > 10.4 µM
